experiment: Fraction unbound in human plasma at 0.5 ug/ml; type: ADME, cell-free
outcome measure: fraction unbound at 0.5 ug/ml
// keep it numeric: no unit symbol after the value

// known answers, use as guide
Cc1ccc(CNC(=O)c2nn(-c3ccc(F)cc3)c(CC[C@@H](O)C[C@@H](O)CC(=O)O)c2C(C)C)cc1    0.051
O=C([O-])C[C@H](O)C[C@H](O)CCn1c(-c2ccc(F)cc2)nc(C(=O)NCc2cccc(F)c2)c1C1CC1.[Na+]    0.29

Memo: CC(C)c1nc(N(C)S(C)(=O)=O)nc(-c2ccc(F)cc2)c1/C=C/[C@@H](O)C[C@@H](O)CC(=O)O [ROSUVASTATIN] , reported fraction unbound at 0.5 ug/ml: 0.17

----------
assay: Lipophilicity, log D of the compound at pH 7.4 by shake flask method; format: physicochemical; conditions: buffer
outcome measure: logD
Give only the figure.

Answered examples (3):
COc1ccc(CNC(=O)c2nc(-c3ccc(F)cc3)n(CC[C@@H](O)C[C@@H](O)CC(=O)[O-])c2C2CC2)cc1.[Na+]    0.02
Cc1cccc(CNC(=O)c2nc(-c3ccc(F)cc3)n(CC[C@@H](O)C[C@@H](O)CC(=O)[O-])c2C2CC2)c1.[Na+]    0.47
O=C([O-])C[C@H](O)C[C@H](O)CCn1c(-c2ccc(F)cc2)nc(C(=O)NCc2ccc(F)cc2)c1C1CC1.[Na+]    0.17

Please turn your attention to the following entry.
The value of logD measured for the compound O=C([O-])C[C@H](O)C[C@H](O)CCn1c(-c2ccc(F)cc2)nc(C(=O)NCc2ccccc2)c1C1CC1.[Na+] turned out to be 0.03

----------
assay: Terminal half life in human plasma at 80 mg administered as single dose; type: ADME, cell-free; details: read-out: beta t1/2 (converted)
outcome measure: half-life (h)
Numbers only here, please. The scale is h.

The compound identified as Cc1ccc(CNC(=O)c2nn(-c3ccc(F)cc3)c(CC[C@@H](O)C[C@@H](O)CC(=O)O)c2C(C)C)cc1 registered its half-life at 6.28

----------
Biological target: 3-hydroxy-3-methylglutaryl-coenzyme A reductase (Rattus norvegicus, UniProt P51639)
Sequence (P51639 whole entry): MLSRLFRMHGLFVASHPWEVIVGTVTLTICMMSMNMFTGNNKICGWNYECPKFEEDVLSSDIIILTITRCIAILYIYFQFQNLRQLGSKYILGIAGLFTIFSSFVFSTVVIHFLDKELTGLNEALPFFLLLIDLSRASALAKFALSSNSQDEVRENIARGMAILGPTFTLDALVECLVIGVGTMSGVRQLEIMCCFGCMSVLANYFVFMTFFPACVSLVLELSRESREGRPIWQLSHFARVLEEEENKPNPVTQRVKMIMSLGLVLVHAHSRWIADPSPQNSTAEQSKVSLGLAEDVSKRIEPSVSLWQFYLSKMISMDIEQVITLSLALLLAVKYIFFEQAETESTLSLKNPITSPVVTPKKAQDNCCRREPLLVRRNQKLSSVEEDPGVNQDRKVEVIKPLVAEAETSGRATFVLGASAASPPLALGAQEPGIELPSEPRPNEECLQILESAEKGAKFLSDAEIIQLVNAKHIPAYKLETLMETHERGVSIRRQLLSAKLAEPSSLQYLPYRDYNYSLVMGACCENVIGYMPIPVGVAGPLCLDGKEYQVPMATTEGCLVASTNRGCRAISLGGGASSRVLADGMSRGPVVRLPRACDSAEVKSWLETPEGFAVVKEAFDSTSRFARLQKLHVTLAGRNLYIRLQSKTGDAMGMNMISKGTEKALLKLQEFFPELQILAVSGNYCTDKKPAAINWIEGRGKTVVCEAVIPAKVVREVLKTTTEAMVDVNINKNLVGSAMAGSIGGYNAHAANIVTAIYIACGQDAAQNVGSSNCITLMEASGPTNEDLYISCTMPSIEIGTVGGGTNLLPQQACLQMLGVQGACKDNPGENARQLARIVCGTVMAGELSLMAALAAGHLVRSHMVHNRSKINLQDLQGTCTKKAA
outcome measure: log10(IC50) (log10 of the value in nM)
All values: base-10 log of IC50 in nM.

O=C([O-])C[C@H](O)C[C@H](O)CCn1c(-c2ccc(F)cc2)nc(C(=O)NCc2ccc(F)c(F)c2)c1C1CC1.[Na+]    0.08
O=C([O-])C[C@H](O)C[C@H](O)CCn1c(-c2ccc(F)cc2)nc(C(=O)NCc2cccc(F)c2)c1C1CC1.[Na+]    0.08
CCCc1c(C(=O)NCc2ccccc2)nc(-c2ccc(F)cc2)n1CC[C@@H](O)C[C@@H](O)CC(=O)O    1.41
Cc1ccc(CNC(=O)c2nn(-c3ccc(F)cc3)c(CC[C@@H](O)C[C@@H](O)CC(=O)O)c2C(C)C)cc1    0.00
O=C([O-])C[C@H](O)C[C@H](O)CCn1c(-c2ccc(F)cc2)nc(C(=O)NCc2ccc(F)cc2F)c1C1CC1.[Na+]    0.08

Lab note: measured log10(IC50) of Cc1cccc(CNC(=O)c2nc(-c3ccc(F)cc3)n(CC[C@@H](O)C[C@@H](O)CC(=O)[O-])c2C2CC2)c1.[Na+] was 0.86

Short answer for CCc1c(C(=O)NCc2ccccc2)nc(-c2ccc(F)cc2)n1CC[C@@H](O)C[C@@H](O)CC(=O)O : log10(IC50) was 2.09

----------
The following compounds are listed with their measured uptake ratio at 1 µM values.
Target: OATP2B1 (Homo sapiens)
Sequence (O94956 whole entry): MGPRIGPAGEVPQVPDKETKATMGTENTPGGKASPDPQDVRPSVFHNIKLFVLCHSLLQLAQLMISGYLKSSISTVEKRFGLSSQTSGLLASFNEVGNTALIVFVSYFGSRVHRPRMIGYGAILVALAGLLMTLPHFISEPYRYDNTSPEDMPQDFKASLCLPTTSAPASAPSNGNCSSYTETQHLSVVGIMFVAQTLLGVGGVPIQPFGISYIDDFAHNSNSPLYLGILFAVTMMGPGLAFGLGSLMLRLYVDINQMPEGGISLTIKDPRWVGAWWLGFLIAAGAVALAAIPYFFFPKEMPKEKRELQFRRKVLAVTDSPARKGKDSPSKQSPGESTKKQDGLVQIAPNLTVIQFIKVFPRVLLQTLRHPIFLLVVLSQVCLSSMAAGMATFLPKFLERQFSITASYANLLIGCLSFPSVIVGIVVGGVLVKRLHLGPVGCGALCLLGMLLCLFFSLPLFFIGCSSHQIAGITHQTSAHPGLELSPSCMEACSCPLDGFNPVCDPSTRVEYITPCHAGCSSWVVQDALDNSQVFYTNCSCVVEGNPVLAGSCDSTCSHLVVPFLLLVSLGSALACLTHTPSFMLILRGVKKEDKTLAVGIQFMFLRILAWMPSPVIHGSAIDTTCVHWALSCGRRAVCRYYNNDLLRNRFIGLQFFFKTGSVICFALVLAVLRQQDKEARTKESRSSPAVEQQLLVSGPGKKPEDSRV
Experiment: Drug uptake by human hepatic OATP2B1 transporter expressed in HEK293 cells at 1 uM relative to wild-type HEK293 cells
Format: ADME, cell-based
Conditions: HEK293 cells expressing human OATP2B1, read-out: FC
// keep it numeric: no unit symbol after the value

Answered cases to consult:
O=C([O-])C[C@H](O)C[C@H](O)CCn1c(-c2ccc(F)cc2)nc(C(=O)NCc2cccc(F)c2)c1C1CC1.[Na+]    7.1
Cc1ccc(CNC(=O)c2nn(-c3ccc(F)cc3)c(CC[C@@H](O)C[C@@H](O)CC(=O)O)c2C(C)C)cc1    2.1
Cc1ncc2n1-c1ccc(Cl)cc1C(c1ccccc1F)=NC2 [MIDAZOLAM]    0.8

Shift focus to the following entry.
uptake ratio at 1 µM for CC(C)c1nc(N(C)S(C)(=O)=O)nc(-c2ccc(F)cc2)c1/C=C/[C@@H](O)C[C@@H](O)CC(=O)O [ROSUVASTATIN] is 5.5

----------
target: 3-hydroxy-3-methylglutaryl-coenzyme A reductase (Rattus norvegicus)
outcome measure: IC50 (nM)
# output: bare number, implied unit nM

These solved cases illustrate the format of a correct answer.
COc1ccc(CNC(=O)c2nc(-c3ccc(F)cc3)n(CC[C@@H](O)C[C@@H](O)CC(=O)[O-])c2C2CC2)cc1.[Na+]    1.2
O=C(O)C[C@H](O)C[C@H](O)CCn1c(-c2ccc(F)cc2)nc(C(=O)NCc2ccccc2F)c1C1CC1    1.5
COc1ccccc1CNC(=O)c1nc(-c2ccc(F)cc2)n(CC[C@@H](O)C[C@@H](O)CC(=O)[O-])c1C1CC1.[Na+]    7

# lookup: Cc1ccccc1CNC(=O)c1nc(-c2ccc(F)cc2)n(CC[C@@H](O)C[C@@H](O)CC(=O)[O-])c1C1CC1.[Na+] on 3-hydroxy-3-methylglutaryl-coenzyme A reductase (Rattus norvegicus), IC50 = 4.9
